# study-system: T1, human PD-L1 on cells (human, UniProt Q9NZQ7 19-290)
# T1 construct: Endogenous on MDA-MB-231 cells or transfected into HEK293FF cells (Sino Biological plasmid); the assay field says which; also called native PD-L1 on MDA-MB-231 cells; PD-L1 expressing MDA-MB-231 cells
# T1 sequence (Q9NZQ7 19-290 limits assumed): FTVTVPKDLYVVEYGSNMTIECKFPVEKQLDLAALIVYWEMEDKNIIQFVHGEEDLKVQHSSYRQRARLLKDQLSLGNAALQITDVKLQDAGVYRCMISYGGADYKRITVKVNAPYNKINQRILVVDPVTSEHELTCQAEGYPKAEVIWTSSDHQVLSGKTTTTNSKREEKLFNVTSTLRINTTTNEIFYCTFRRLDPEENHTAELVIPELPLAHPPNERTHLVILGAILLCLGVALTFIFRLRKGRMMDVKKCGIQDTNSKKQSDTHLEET
# protocol: flow cytometry on MDA-MB-231 cells, Krebs buffer, pH 7.4
# Experimental: Anti-PD-L1 affinity matured Fabs were tested for their ability to bind to native PD-L1 in a cell line, (MDA-MB-231 cells) in a buffer resembling the tumor microenvironment (Krebs-lactate).
measurement-name: pEC50
Please treat pEC50 as minus the base-10 logarithm of the molar concentration.

INSERT INTO results (binder, measured_number) VALUES
  ('Fab 8G08 (Fab, V domains shown, Purified Fab prepared from IgG with the Pierce kit; also called 8G08 Fab) VH: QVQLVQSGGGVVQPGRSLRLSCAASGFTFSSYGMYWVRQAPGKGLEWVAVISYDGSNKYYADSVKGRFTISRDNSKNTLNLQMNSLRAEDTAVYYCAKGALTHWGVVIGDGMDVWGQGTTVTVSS VL: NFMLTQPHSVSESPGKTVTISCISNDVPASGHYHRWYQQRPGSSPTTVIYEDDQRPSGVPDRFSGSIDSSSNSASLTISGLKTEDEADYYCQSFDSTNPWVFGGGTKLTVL', 7.88);

Let's switch to this binder now.
Looking up Fab 8D06 (Fab, V domains shown, Purified Fab prepared from IgG with the Pierce kit; also called 8D06 Fab) VH: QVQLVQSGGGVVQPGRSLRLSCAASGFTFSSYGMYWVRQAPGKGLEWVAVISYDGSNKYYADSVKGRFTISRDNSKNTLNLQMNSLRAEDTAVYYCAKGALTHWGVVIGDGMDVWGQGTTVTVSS VL: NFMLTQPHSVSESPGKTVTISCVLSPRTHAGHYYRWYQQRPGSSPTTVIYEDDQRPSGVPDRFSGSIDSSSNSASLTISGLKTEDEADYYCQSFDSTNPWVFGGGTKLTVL , I see its pEC50 listed as 7.80
